- test method notes: Half life in rat at 1.5 mg/kg, iv
- Assay type: ADME, organism-based
- Set-up: dose 1.5 mg/kg, route intravenous
- run parameters: in vivo
measurement name: half-life (min)
A number alone suffices; assume min.

Q) Can you share its half-life? I mean this compound: Cn1c(=O)c2c(nc(N3CCC[C@@H](N)C3)n2Cc2ccccc2Cl)c2cc(C(=O)O)ccc21
A) 60

----------
- test method notes: AUC in rat at 1.5 mg/kg, iv
- Format: ADME, organism-based
- Set-up: dose 1.5 mg/kg, route intravenous
- run parameters: plasma
measurement name: AUC (ng·h/mL)
Give a bare numeral; the unit ng·h/mL is implied.

Q) So what does the record say about AUC for Cn1c(=O)c2c(nc(N3CCC[C@@H](N)C3)n2Cc2ccccc2Cl)c2cc(C(=O)O)ccc21 ?
A) 188
